- Tested on: OVCAR-8 ovarian
- Assay details: NCI tumour cell line growth inhibition, 48 h
Metric: TGI

These solved cases illustrate the format of a correct answer.
CC1(C)CC23C(=O)N(c4ccccc4)C(=Nc4ccccc4)NC2=CC(C#N)=C(C#N)C3O1 (stereo not given) :: > 100 µM
C[C@]12CCC[C@H](OC=O)C1(O)C[C@H](C(=O)O)CC2 (stereo not given in full) :: > 100 µM
O=C1c2ccccc2C(=O)c2c(OCC3CO3)ccc(OCC3CO3)c21 (stereo not given) :: 5.94 µM
O=C(O)c1ccc(Nc2ccnc3cc(Cl)ccc23)cc1O :: > 100 µM

Next item in the queue.
Prompt: Find the recorded TGI belonging to `C#CCCCC(=C)C[C@H](OCc1ccccc1)[C@H]1OC(=O)[C@@H]1C` and report it.
Response: > 100 µM
